Assignment: determine reported MIC for the given molecules.
Respond with the bare value in µg/mL.

Noted MIC for CC[C@H]1OC(=O)[C@H](C)C(=O)[C@H](C)[C@@H](O[C@@H]2O[C@H](C)C[C@H](N(C)C)[C@H]2O)[C@](C)(OC/C=C/c2ccc(-c3cccnc3)s2)C[C@@H](C)C(=O)[C@H](C)[C@H]2NC(=O)O[C@@]21C [Example 68] , tested on Streptococcus Pneumonia 5649: 0.125

Noted MIC for CCOC(=O)c1cncc(-c2ccc(C#CCO[C@]3(C)C[C@@H](C)C(=O)[C@H](C)[C@H]4NC(=O)O[C@]4(C)[C@@H](CC)OC(=O)[C@H](C)C(=O)[C@H](C)[C@H]3O[C@@H]3O[C@H](C)C[C@H](N(C)C)[C@H]3O)s2)c1 [Example 10] , tested on Streptococcus Pneumonia 5649: 0.5

Noted MIC for CC[C@H]1OC(=O)[C@H](C)C(=O)[C@H](C)[C@@H](O[C@@H]2O[C@H](C)C[C@H](N(C)C)[C@H]2O)[C@](C)(OC/C=C/c2cncc(-c3cncc4ccccc34)c2)C[C@@H](C)C(=O)[C@H](C)[C@H]2NC(=O)O[C@@]21C [Example 48] , tested on Streptococcus Pneumonia 5649: 0.25

Noted MIC for CC[C@H]1OC(=O)[C@H](C)C(=O)[C@H](C)[C@@H](O[C@@H]2O[C@H](C)C[C@H](N(C)C)[C@H]2O)[C@](C)(OCC#Cc2ccc(-c3cncs3)s2)C[C@@H](C)C(=O)[C@H](C)[C@H]2NC(=O)O[C@@]21C [Example 29] , tested on Streptococcus Pneumonia 5649: 0.25

Noted MIC for CC[C@H]1OC(=O)[C@H](C)C(=O)[C@H](C)[C@@H](O[C@@H]2O[C@H](C)C[C@H](N(C)C)[C@H]2O)[C@](C)(OC/C=C/c2cncc(-c3nccs3)c2)C[C@@H](C)C(=O)[C@H](C)[C@H]2NC(=O)O[C@@]21C [Example 51] , tested on Streptococcus Pneumonia 5649: 0.25

Noted MIC for CC[C@H]1OC(=O)[C@H](C)C(=O)[C@H](C)[C@@H](O[C@@H]2O[C@H](C)C[C@H](N(C)C)[C@H]2O)[C@](C)(OC/C=C/c2ccc3ncc(Br)cc3c2)C[C@@H](C)C(=O)[C@H](C)[C@H]2NC(=O)O[C@@]21C [Example 38] , tested on Streptococcus Pneumonia 5649: 0.25

Noted MIC for CC[C@H]1OC(=O)[C@H](C)C(=O)[C@H](C)[C@@H](O[C@@H]2O[C@H](C)C[C@H](N(C)C)[C@H]2O)[C@](C)(OC/C=C/c2cncc(-c3cccnc3)c2)C[C@@H](C)C(=O)[C@H](C)[C@H]2NC(=O)O[C@@]21C [Example 47] , tested on Streptococcus Pneumonia 5649: 0.5

Noted MIC for CC[C@H]1OC(=O)[C@H](C)C(=O)[C@H](C)[C@@H](O[C@@H]2O[C@H](C)C[C@H](N(C)C)[C@H]2O)[C@](C)(OC/C=C/c2ccc(-c3cccc(F)c3)s2)C[C@@H](C)C(=O)[C@H](C)[C@H]2NC(=O)O[C@@]21C [Example 72] , tested on Streptococcus Pneumonia 5649: 1

Noted MIC for CC[C@H]1OC(=O)[C@H](C)C(=O)[C@H](C)[C@@H](O[C@@H]2O[C@H](C)C[C@H](N(C)C)[C@H]2O)[C@](C)(OC/C=C/c2ccc(-c3ccsc3)s2)C[C@@H](C)C(=O)[C@H](C)[C@H]2NC(=O)O[C@@]21C [Example 76] , tested on Streptococcus Pneumonia 5649: 0.125

Noted MIC for CC[C@H]1OC(=O)[C@H](C)C(=O)[C@H](C)[C@@H](O[C@@H]2O[C@H](C)C[C@H](N(C)C)[C@H]2O)[C@](C)(OCC#Cc2ccc(-c3cc4ccccc4s3)s2)C[C@@H](C)C(=O)[C@H](C)[C@H]2NC(=O)O[C@@]21C [Example 34] , tested on Streptococcus Pneumonia 5649: 2

Noted MIC for CC[C@H]1OC(=O)[C@H](C)C(=O)[C@H](C)[C@@H](O[C@@H]2O[C@H](C)C[C@H](N(C)C)[C@H]2O)[C@](C)(OCC#Cc2ccc(-c3cscn3)s2)C[C@@H](C)C(=O)[C@H](C)[C@H]2NC(=O)O[C@@]21C [Example 30] , tested on Streptococcus Pneumonia 5649: 0.25

Noted MIC for CC[C@H]1OC(=O)[C@H](C)C(=O)[C@H](C)[C@@H](O[C@@H]2O[C@H](C)C[C@H](N(C)C)[C@H]2O)[C@](C)(OCC#Cc2ccc(-c3ccc(Cl)s3)s2)C[C@@H](C)C(=O)[C@H](C)[C@H]2NC(=O)O[C@@]21C [Example 26] , tested on Streptococcus Pneumonia 5649: 0.25

Noted MIC for CC[C@H]1OC(=O)[C@H](C)C(=O)[C@H](C)[C@@H](O[C@@H]2O[C@H](C)C[C@H](N(C)C)[C@H]2O)[C@](C)(OC/C=C/c2cncc(-c3cncs3)c2)C[C@@H](C)C(=O)[C@H](C)[C@H]2NC(=O)O[C@@]21C [Example 52] , tested on Streptococcus Pneumonia 5649: 0.25

Noted MIC for CC[C@H]1OC(=O)[C@H](C)C(=O)[C@H](C)[C@@H](O[C@@H]2O[C@H](C)C[C@H](N(C)C)[C@H]2O)[C@](C)(OCC#Cc2ccc(-c3cncc(C(N)=O)c3)s2)C[C@@H](C)C(=O)[C@H](C)[C@H]2NC(=O)O[C@@]21C [Example 9] , tested on Streptococcus Pneumonia 5649: 0.25

Noted MIC for CC[C@H]1OC(=O)[C@H](C)C(=O)[C@H](C)[C@@H](O[C@@H]2O[C@H](C)C[C@H](N(C)C)[C@H]2O)[C@](C)(OC/C=C/c2cncc(-c3ccco3)c2)C[C@@H](C)C(=O)[C@H](C)[C@H]2NC(=O)O[C@@]21C [Example 50] , tested on Streptococcus Pneumonia 5649: 0.12
